Hello, the source for this data is patent US9458132B2, in case you need it.

Target: PKR R532W (Homo sapiens, UniProt P30613, R532W)
Sequence (P30613 whole entry R532W): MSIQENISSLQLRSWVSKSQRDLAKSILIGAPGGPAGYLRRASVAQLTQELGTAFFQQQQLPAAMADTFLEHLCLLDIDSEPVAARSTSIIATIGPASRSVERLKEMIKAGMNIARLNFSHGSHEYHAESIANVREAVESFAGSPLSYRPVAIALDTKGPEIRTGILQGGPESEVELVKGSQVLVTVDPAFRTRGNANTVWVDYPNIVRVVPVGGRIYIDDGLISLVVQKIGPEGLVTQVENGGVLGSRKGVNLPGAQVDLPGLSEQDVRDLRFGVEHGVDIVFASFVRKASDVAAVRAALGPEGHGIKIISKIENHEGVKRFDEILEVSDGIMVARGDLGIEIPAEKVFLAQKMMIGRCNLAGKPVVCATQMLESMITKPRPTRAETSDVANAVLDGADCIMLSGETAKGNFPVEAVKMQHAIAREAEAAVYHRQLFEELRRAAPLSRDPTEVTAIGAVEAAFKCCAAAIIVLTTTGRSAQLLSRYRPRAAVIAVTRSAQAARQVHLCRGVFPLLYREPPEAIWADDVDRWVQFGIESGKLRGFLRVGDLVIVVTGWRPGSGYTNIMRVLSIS
Assay: PKR mutant assay, PKR R532W AC50
Type: biochemical
Settings: mutant PKR R532W enzyme
experimental readout: AC50

Check out these entries, answers already filled in.
# compound, target entity, test value
measured = [
    ("Cc1ccccc1C1(O)CN(C(=O)c2ccc(NS(=O)(=O)c3cccc4cccnc34)cc2)C1", "PKR R532W (Homo sapiens, UniProt P30613, R532W)", "< 100 nM"),
    ("CC(O)C1(O)CN(C(=O)c2ccc(NS(=O)(=O)c3cccc4cccnc34)cc2)C1 (stereo not drawn)", "PKR R532W (Homo sapiens, UniProt P30613, R532W)", "> 10000 nM"),
    ("O=C(c1ccc(NS(=O)(=O)c2cccc3cccnc23)cc1)N1CC(O)(CCO)C1", "PKR R532W (Homo sapiens, UniProt P30613, R532W)", "> 10000 nM"),
    ("O=C(c1ccc(NS(=O)(=O)c2cccc3cccnc23)cc1)N1CC(O)(Cc2ccccn2)C1", "PKR R532W (Homo sapiens, UniProt P30613, R532W)", "101 to 1000 nM"),
    ("O=C(c1ccc(NS(=O)(=O)c2ccc(F)cc2F)cc1)N1CC(O)(c2cccc(C(F)(F)F)c2)C1", "PKR R532W (Homo sapiens, UniProt P30613, R532W)", "> 10000 nM"),
    ("O=C(c1ccc(NS(=O)(=O)c2cccc3cccnc23)cc1)N1CC(O)(Cc2cccc(F)n2)C1", "PKR R532W (Homo sapiens, UniProt P30613, R532W)", "101 to 1000 nM"),
    ("O=C(c1ccc(NS(=O)(=O)c2cccc3cccnc23)cc1)N1CC(O)(CC2CC2)C1", "PKR R532W (Homo sapiens, UniProt P30613, R532W)", "101 to 1000 nM"),
    ("O=C(c1ccc(NS(=O)(=O)c2cccc3cccnc23)cc1)N1CC(O)(c2cccc(Cl)c2)C1", "PKR R532W (Homo sapiens, UniProt P30613, R532W)", "< 100 nM"),
]

**Query** For the compound shown here, CC(C)(C)C1(O)CN(C(=O)c2ccc(NS(=O)(=O)c3cccc4cccnc34)cc2)C1 , give the reported AC50.
**Result** 1010 to 10000 nM

---

Target: PKR R532W (Homo sapiens, UniProt P30613, R532W)
Assay: PKR mutant assay, PKR R532W AC50
Type: biochemical
Settings: mutant PKR R532W enzyme
experimental readout: AC50

Check out these entries, answers already filled in.
# compound, experimental readout, test value
data = [
    ("O=C(c1ccc(NS(=O)(=O)c2cccc3cccnc23)cc1)N1CC(O)(c2cccnc2F)C1 [Compound 18]", "AC50", "0.101 to 1 µM"),
    ("O=C(c1ccc(NS(=O)(=O)c2cccc3cccnc23)cc1)N1CC(O)(c2ccccc2C(F)(F)F)C1 [Compound 6]", "AC50", "0.101 to 1 µM"),
]

Would you mind listing AC50 for each of the following compounds?
1. Cn1c(=O)oc2cc(S(=O)(=O)Nc3ccc(C(=O)N4CC(O)(Cc5ccccc5)C4)cc3)ccc21 [Compound 70]
2. O=C(c1ccc(NS(=O)(=O)c2cccc3cccnc23)cc1)N1CC(O)(c2cccc(F)c2)C1 [Compound 4]
3. O=C(c1ccc(NS(=O)(=O)c2cccc3ncccc23)cc1)N1CC(O)(c2cccc(C(F)(F)F)c2)C1 [Compound 44]
4. COc1ccccc1C1(O)CN(C(=O)c2ccc(NS(=O)(=O)c3cccc4cccnc34)cc2)C1 [Compound 2]
5. CCC1(O)CN(C(=O)c2ccc(NS(=O)(=O)c3cccc4cccnc34)cc2)C1 [Compound 34]

**Result**
1. > 10 µM
2. 0.101 to 1 µM
3. 1.01 to 10 µM
4. < 0.1 µM
5. 1.01 to 10 µM
